Can you tell me cell viability for the items I'm about to list?
- Tested on: WHIM2 (cells of a triple-negative basal-like breast cancer xenograft);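 note: cells dissociated from PDX tumors propagated in female NSG mouse mammary fat pads, vehicle control 0.1% DMSO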
- Assay Explanation: cell viability (% of vehicle); higher = less cytotoxic
- Stated Conditions: 1 µM; 72 h
Form field (numeric): enter value without unit.

I would be grateful if you could share the reported cell viability for CC(C)(C)NC(=O)C1CC2CCCCC2CN1CC(O)C(Cc1ccccc1)NC(=O)C(CC(N)=O)NC(=O)c1ccc2ccccc2n1.CS(=O)(=O)O (centres undefined) [Saquinavir mesylate] .
105

I would be grateful if you could share the reported cell viability for CN(C)CC=CC(=O)Nc1cc2c(Nc3ccc(F)c(Cl)c3)ncnc2cc1OC1CCOC1.O=C(O)C=CC(=O)O.O=C(O)C=CC(=O)O (centres undefined) [Afatinib dimaleate] .
57.8

I would be grateful if you could share the reported cell viability for COC(=O)C1=C(C)NC(C)=C(C(=O)OCCN(C)Cc2ccccc2)C1c1cccc([N+](=O)[O-])c1.Cl (centres undefined) [Nicardipine HCl] .
93.5

I would be grateful if you could share the reported cell viability for CCN(CC)CCNC(=O)c1c(C)[nH]c(C=C2C(=O)Nc3ccc(F)cc32)c1C.O=C(O)CC(O)C(=O)O [Sunitinib malate] .
96

I would be grateful if you could share the reported cell viability for "CCCCCCCCc1ccc(CCC(N)(CO)CO)cc1.Cl" .
92.2

I would be grateful if you could share the reported cell viability for CCc1c(Cl)c(O)c(Cl)c(O)c1C(=O)OC1C(C)OC(OCC2=CC=CCC(O)C(C)=CC(CC)C(OC3OC(C)(C)C(OC(=O)C(C)C)C(O)C3O)C(C)=CC(C)=CCC(C(C)O)OC2=O)C(OC)C1O (centres undefined) .
122

I would be grateful if you could share the reported cell viability for "C=CC(=O)Nc1cc(Nc2nccc(-c3cn(C)c4ccccc34)n2)c(OC)cc1N(C)CCN(C)C" .
52.7

I would be grateful if you could share the reported cell viability for "Cc1c(Cl)cccc1Nc1ccccc1C(=O)O" .
106

I would be grateful if you could share the reported cell viability for "COc1cc2c(Oc3ccc4[nH]c(C)cc4c3F)ncnc2cc1OCCCN1CCCC1" .
25.6

I would be grateful if you could share the reported cell viability for CCOC(=O)C1=C(COCCN)NC(C)=C(C(=O)OC)C1c1ccccc1Cl (centres undefined) .
101

I would be grateful if you could share the reported cell viability for COc1cccc2c1C(=O)c1c(O)c3c(c(O)c1C2=O)CC(O)(C(=O)CO)CC3OC1CC(N)C(O)C(C)O1 (centres undefined) .
30.4

I would be grateful if you could share the reported cell viability for COc1cccc2c1C(=O)c1c(O)c3c(c(O)c1C2=O)CC(O)(C(=O)CO)CC3OC1CC(N)C(O)C(C)O1.Cl (centres undefined) [Epirubicin HCl] .
22.2

I would be grateful if you could share the reported cell viability for CC(NCCCc1cccc(C(F)(F)F)c1)c1cccc2ccccc12.Cl (centres undefined) [Cinacalcet HCl] .
76.7

I would be grateful if you could share the reported cell viability for Nc1c(CC(=O)[O-])cccc1C(=O)c1ccccc1.O.[Na+] [Amfenac Sodium Monohydrate] .
115

###

Can you tell me cell viability for the items I'm about to list?
- Test system: HCI01 (cells of a triple-negative basal-like breast cancer xenograft);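 note: PDX cells carrying CMV promoter-driven luciferase, viability read as total photon flux per second by IVIS imaging following D-luciferin, vehicle control 0.1% DMSO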
- Assay Explanation: cell viability (% of vehicle); higher = less cytotoxic
- Stated Conditions: 10 µM; 72 h
Structures can show the parent of a compound that is named as a salt.
Form field (numeric): enter value without unit.

I would be grateful if you could share the reported cell viability for CN[C@H](CC(C)C)C(=O)N[C@H]1C(=O)N[C@@H](CC(N)=O)C(=O)N[C@H]2C(=O)N[C@H]3C(=O)N[C@H](C(=O)N[C@H](C(=O)O)c4cc(O)cc(O)c4-c4cc3ccc4O)[C@H](O)c3ccc(c(Cl)c3)Oc3cc2cc(c3O[C@@H]2O[C@H](CO)[C@@H](O)[C@H](O)[C@H]2O[C@H]2C[C@](C)(N)[C@H](O)[C@H](C)O2)Oc2ccc(cc2Cl)[C@H]1O [Vancomycin hydrochloride] .
125

I would be grateful if you could share the reported cell viability for CC1=C2N=C(C=C3N=C(C(C)=C4[N-]C(C)(C5N=C1C(C)(CCC(=O)NCC(C)OP(=O)([O-])OC1C(CO)OC(n6cnc7cc(C)c(C)cc76)C1O)C5CC(N)=O)C(C)(CC(N)=O)C4CCC(N)=O)C(C)(CC(N)=O)C3CCC(N)=O)C(C)(C)C2CCC(N)=O.[CH3-].[Co+3] (configuration not stated) [Methylcobalamin] .
81.6

I would be grateful if you could share the reported cell viability for O=C([O-])Cc1ccccc1Nc1c(Cl)cccc1Cl.[K+] [Diclofenac Potassium] .
117

I would be grateful if you could share the reported cell viability for CCCCC(=O)OC1CCC2C3CCc4cc(O)ccc4C3CCC12C (configuration not stated) [Estradiol valerate] .
157

I would be grateful if you could share the reported cell viability for CNS(=O)(=O)Cc1ccc2[nH]cc(CCN(C)C)c2c1.O=C(O)CCC(=O)O [Sumatriptan Succinate] .
89.3

I would be grateful if you could share the reported cell viability for N#CC1CC2CC2N1C(=O)C(N)C12CC3CC(CC(O)(C3)C1)C2 (configuration not stated) [Saxagliptin] .
95

I would be grateful if you could share the reported cell viability for Cc1cc2c(s1)=Nc1ccccc1NC=2N1CCN(C)CC1 [Olanzapine] .
90.2

I would be grateful if you could share the reported cell viability for COc1ccc(Cl)cc1C(=O)NCCc1ccc(S(=O)(=O)NC(=O)NC2CCCCC2)cc1 [Glibenclamide] .
103

I would be grateful if you could share the reported cell viability for COc1ccc2cc([C@H](C)C(=O)[O-])ccc2c1.[Na+] [Naproxen Sodium] .
83.6

I would be grateful if you could share the reported cell viability for Clc1ccc(C(Cn2ccnc2)OCc2ccc(Sc3ccccc3)cc2)c(Cl)c1.O=[N+]([O-])O (configuration not stated) [Fenticonazole Nitrate] .
40.8

I would be grateful if you could share the reported cell viability for Cc1cnc(NC(=O)C2=C(O)c3ccccc3S(=O)(=O)N2C)s1 [Meloxicam (Mobic)] .
104

I would be grateful if you could share the reported cell viability for CCOC(=O)C1=C(C)NC(C)=C(C(=O)OC)C1c1cccc(Cl)c1Cl (configuration not stated) [Felodipine] .
116

I would be grateful if you could share the reported cell viability for CC1CC(=O)NN=C1c1ccc(NN=C(C#N)C#N)cc1 (configuration not stated) [Levosimendan] .
50.6

I would be grateful if you could share the reported cell viability for Cl.Cl.Fc1ccc(C(c2ccc(F)cc2)N2CCN(CC=Cc3ccccc3)CC2)cc1 [Flunarizine 2HCl] .
106

I would be grateful if you could share the reported cell viability for CCCc1nn(C)c2c(=O)nc(-c3cc(S(=O)(=O)N4CCN(C)CC4)ccc3OCC)[nH]c12.O=C(O)CC(O)(CC(=O)O)C(=O)O [Sildenafil Citrate] .
116

I would be grateful if you could share the reported cell viability for CN1CCN(C2=c3ccccc3=Nc3ccc(Cl)cc3N2)CC1 [Clozapine] .
95.4

I would be grateful if you could share the reported cell viability for CCc1cnn2c(NCc3ccc[n+]([O-])c3)cc(N3CCCCC3CCO)nc12 (configuration not stated) .
38.1

I would be grateful if you could share the reported cell viability for COc1cc(Nc2c(C#N)cnc3cc(OCCCN4CCN(C)CC4)c(OC)cc23)c(Cl)cc1Cl [Bosutinib (SKI-606)] .
48.4

I would be grateful if you could share the reported cell viability for COc1cc(Cc2cnc(N)nc2N)cc(OC)c1OC [Trimethoprim] .
78.3

I would be grateful if you could share the reported cell viability for Cc1onc(-c2ccccc2)c1-c1ccc(S(N)(=O)=O)cc1 [Valdecoxib] .
126

I would be grateful if you could share the reported cell viability for CC(=O)OCC(=O)C1(O)CCC2C3CCC4=CC(=O)C=CC4(C)C3C(O)CC21C (configuration not stated) [Prednisolone Acetate] .
119

I would be grateful if you could share the reported cell viability for Cl.O.O=C1Cc2cc(CCN3CCN(c4nsc5ccccc45)CC3)c(Cl)cc2N1 [Ziprasidone hydrochloride monohydrate] .
33.4

I would be grateful if you could share the reported cell viability for O=c1c(-n2ccnn2)c[nH]n1-c1cc(N2CCOCC2)ncn1 [Molidustat (BAY85-3934)] .
142

I would be grateful if you could share the reported cell viability for Cc1nc2c([nH]1)CCN(C(=O)c1ccc(NC(=O)c3ccccc3-c3ccccc3)cc1)c1ccccc1-2.Cl [Conivaptan HCl] .
111

I would be grateful if you could share the reported cell viability for CC(CN1CC(=O)NC(=O)C1)N1CC(=O)NC(=O)C1.Cl (configuration not stated) [Dexrazoxane HCl (ICRF-187, ADR-529)] .
64.8

I would be grateful if you could share the reported cell viability for CC1(O)CC(c2nc(-c3ccc4ccc(-c5ccccc5)nc4c3)c3c(N)nccn23)C1 (configuration not stated) [Linsitinib] .
112

I would be grateful if you could share the reported cell viability for COc1cc2nc(N3CCN(C(=O)C4COc5ccccc5O4)CC3)nc(N)c2cc1OC.CS(=O)(=O)O (configuration not stated) [Doxazosin Mesylate] .
117

Cited source for all entries: the supplement of paper PMC6992640
